The reader will find reported binding signal values listed item by item below.
measuredTarget: POU1 (OCT1 POU domain);BOB1 (OBF1, OCA-B) (human;human, UniProt P14859;Q16633 260-458;1-256, |)
Sequence (P14859 260-458, one chain of several): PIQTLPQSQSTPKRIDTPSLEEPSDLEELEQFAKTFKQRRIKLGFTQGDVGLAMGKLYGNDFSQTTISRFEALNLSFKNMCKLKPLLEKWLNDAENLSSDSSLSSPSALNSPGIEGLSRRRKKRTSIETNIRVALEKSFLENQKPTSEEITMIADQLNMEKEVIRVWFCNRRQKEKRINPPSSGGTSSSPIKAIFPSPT
testMethodNotes: EMSA-SELEX-seq; with BOB1 (ternary complex band); 20 mM Tris-HCl pH 7.6, 140 mM NaCl, 10% glycerol, 0.5 mM EDTA, 0.05% Triton X-100, 0.1 mg/mL BSA, 0.1 mg/mL poly(dI-dC), 5 mM DTT, room temperature, 20 min; high values mean tight binding
conditionParameters: protein: recombinant;recombinant; copies: 1;1; dsDNA, one strand shown

Which binding signal is reported for this sequence? ATTTGAAT
1.92 % of ANNNNAAN 8-mers

Recorded binding signal for ATTTAAAT , please?
0.709 % of ANNNNAAN 8-mers

Looking for the measured binding signal of ACAGTAAG , can you help?
0.032 % of ANNNNAAN 8-mers

Dear colleague, I am looking for the recorded binding signal of the following sequence: AGATGAAC
0.0207 % of ANNNNAAN 8-mers

Form field: reported binding signal of ATCGGAAA
0.0429 % of ANNNNAAN 8-mers

Item under review: AACGAAAA . Reported binding signal?
0.0597 % of ANNNNAAN 8-mers

Sample ACCTTAAG — what was its binding signal?
0.0187 % of ANNNNAAN 8-mers

binding signal lookup needed for AGCACAAA , thanks.
0.0277 % of ANNNNAAN 8-mers

# query: binding signal of entry AAAGCAAT
0.0652 % of ANNNNAAN 8-mers

Looking for the measured binding signal of AGGTGAAC , can you help?
0.0222 % of ANNNNAAN 8-mers

Others:
Suppose we examine the sequence AGAGGAAA ; what binding signal value has been reported?
0.0687 % of ANNNNAAN 8-mers

Could you tell me which binding signal is on file for ATCCTAAA ?
0.0285 % of ANNNNAAN 8-mers

For the sequence AAATCAAT , what binding signal is on record?
0.162 % of ANNNNAAN 8-mers

# input sequence: ATTTAAAA ; wanted: its binding signal
0.178 % of ANNNNAAN 8-mers

Query (sequence): ATTCGAAA ; field requested: binding signal
0.0605 % of ANNNNAAN 8-mers

* * *

# binding signal per entry
measuredTarget: POU2 (OCT2 POU domain);BOB1 (OBF1, OCA-B) (human;human, UniProt P09086;Q16633 175-386;1-256, |)
Sequence 1: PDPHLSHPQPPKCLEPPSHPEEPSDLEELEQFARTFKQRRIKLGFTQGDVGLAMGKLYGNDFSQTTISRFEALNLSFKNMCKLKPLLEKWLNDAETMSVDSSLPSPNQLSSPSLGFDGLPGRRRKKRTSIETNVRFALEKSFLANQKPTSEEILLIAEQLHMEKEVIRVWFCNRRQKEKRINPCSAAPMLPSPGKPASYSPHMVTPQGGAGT
Sequence 2: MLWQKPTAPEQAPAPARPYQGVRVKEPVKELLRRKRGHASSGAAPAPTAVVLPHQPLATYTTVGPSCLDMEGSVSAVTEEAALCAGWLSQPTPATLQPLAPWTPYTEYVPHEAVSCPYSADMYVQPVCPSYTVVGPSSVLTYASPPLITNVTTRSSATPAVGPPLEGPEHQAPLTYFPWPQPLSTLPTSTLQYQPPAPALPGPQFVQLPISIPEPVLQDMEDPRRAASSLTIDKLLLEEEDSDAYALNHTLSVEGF
testMethodNotes: EMSA-SELEX-seq; with BOB1 (ternary complex band); 20 mM Tris-HCl pH 7.6, 140 mM NaCl, 10% glycerol, 0.5 mM EDTA, 0.05% Triton X-100, 0.1 mg/mL BSA, 0.1 mg/mL poly(dI-dC), 5 mM DTT, room temperature, 20 min; high values mean tight binding
conditionParameters: protein: recombinant;recombinant; copies: 1;1; dsDNA, one strand shown

Answered cases to consult:
Which measured binding signal value corresponds to AGGCCAAT ?
0.0413 % of ANNNNAAN 8-mers

What value of binding signal has been reported for the following sequence? ATCTAAAC
0.0495 % of ANNNNAAN 8-mers

Using the record for ACAGTAAC , report its binding signal.
0.0149 % of ANNNNAAN 8-mers

Need binding signal of AAGTGAAG , thanks.
0.0454 % of ANNNNAAN 8-mers

More entries:
Which binding signal reading was recorded for the sequence ACGGAAAG ?
0.0371 % of ANNNNAAN 8-mers

Name the reported binding signal value associated with the sequence ACGAAAAA
0.0355 % of ANNNNAAN 8-mers

For AAGGCAAT , what is its reported binding signal?
0.0495 % of ANNNNAAN 8-mers
